- tgt: AVP-V2 sites (Rattus norvegicus)
- Construct: male rat liver (AVP-V1 sites) or kidney medulla (AVP-V2 sites); from tissue; host or cells: male rat kidney medulla, crude membranes
- assayExplanation: [^3 H]AVP binding to crude membrane preparation of male rat kidney medulla (AVP-V2 sites)
- settings: Receptor Binding Results IC50 (nM) [^3 H]-AVP-V2
Square brackets hold non-standard residues; d marks the D form. Peptide text beside a SMILES is read from it. * marks the point of attachment. dPiz(1,6-dehydro) = O=C(O)[C@H]1CCC=NN1; d1Nal = N[C@H](Cc1cccc2ccccc12)C(=O)O; dNMeY = CN[C@H](Cc1ccc(O)cc1)C(=O)O; dNMeF = CN[C@H](Cc1ccccc1)C(=O)O; Pip = O=C(O)[C@@H]1CCCCN1; dPip = O=C(O)[C@H]1CCCCN1; Orn = NCCC[C@H](N)C(=O)O; Boc = CC(C)(C)OC(=O)*
IC50 values, listed per item

molecule: CC[C@H](C)[C@@H]1NC(=O)[C@@H](Cc2cccc3ccccc23)NC(=O)[C@@H]2CCCN2C(=O)[C@@H](Cc2cnc[nH]2)NC(=O)[C@@H]2CCCCN2C(=O)[C@H]2CCCCN2C1=O [Example 11] (cyclo(I[dPip][Pip][dH]P[d1Nal]))
IC50: > 1000 nM

Please tell me: IC50 of CC[C@H](C)[C@@H]1NC(=O)[C@@H](Cc2ccccc2)NC(=O)[C@@H]2CCCN2C(=O)[C@@H](Cc2ccc(O)cc2)N(C)C(=O)[C@@H]2CCCCN2C(=O)[C@H]2CCCCN2C1=O [Example 46] (cyclo(I[dPip][Pip][dNMeY]P[dF])) , system AVP-V2 sites (Rattus norvegicus)?
> 1000 nM

# iterate: CC[C@H](C)[C@@H]1NC(=O)[C@@H](Cc2c[nH]c3ccccc23)NC(=O)[C@@H]2CCCN2C(=O)[C@@H](Cc2ccccc2)N(C)C(=O)[C@H](CCCNC(=O)OC(C)(C)C)NC(=O)[C@H]2CCC=NN2C1=O [Example 126] (cyclo(I[dPiz(1,6-dehydro)][Orn](Boc)[dNMeF]P[dW]))
1000 nM

Try this molecule too: CC[C@H](C)[C@@H]1NC(=O)[C@@H](Cc2c[nH]c3ccccc23)NC(=O)[C@@H]2CCCN2C(=O)[C@@H](Cc2ccccc2)N(C)C(=O)[C@H](CCCN)NC(=O)[C@H]2CCCCN2C1=O [Example 40] (cyclo(I[dPip][Orn][dNMeF]P[dW]))
> 1000 nM

---

In this section we review reported IC50 values for a set of molecules.
- tgt: AVP-V2 sites (Rattus norvegicus, UniProt Q00788)
- Construct: male rat liver (AVP-V1 sites) or kidney medulla (AVP-V2 sites); from tissue; host or cells: male rat kidney medulla, crude membranes
- Sequence (Q00788 whole entry): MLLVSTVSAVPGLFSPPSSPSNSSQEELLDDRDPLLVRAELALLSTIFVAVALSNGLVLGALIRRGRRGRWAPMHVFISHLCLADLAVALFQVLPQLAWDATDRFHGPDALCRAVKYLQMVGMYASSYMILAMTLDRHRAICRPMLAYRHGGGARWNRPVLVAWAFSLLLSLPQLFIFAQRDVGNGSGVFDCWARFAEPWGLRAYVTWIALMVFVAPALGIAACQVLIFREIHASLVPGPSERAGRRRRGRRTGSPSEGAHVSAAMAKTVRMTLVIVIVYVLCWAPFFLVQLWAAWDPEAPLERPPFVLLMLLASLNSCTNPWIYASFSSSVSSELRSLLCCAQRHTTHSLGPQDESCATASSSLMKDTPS
- assayExplanation: [^3 H]AVP binding to crude membrane preparation of male rat kidney medulla (AVP-V2 sites)
- settings: rat kidney medulla membranes, 2 nM [^3 H]AVP; read-out: Receptor Binding Results IC50 (nM) [^3 H]-AVP-V2
Square brackets hold non-standard residues; d marks the D form. Peptide text beside a SMILES is read from it. dPip(4-aza,4-Cbz) = O=C(O)[C@H]1CN(C(=O)OCc2ccccc2)CCN1; dPhe(4-NH2) = Nc1ccc(C[C@@H](N)C(=O)O)cc1; Pip(4-aza) = O=C(O)[C@@H]1CNCCN1; dNMeF = CN[C@H](Cc1ccccc1)C(=O)O; Pip = O=C(O)[C@@H]1CCCCN1; dPip = O=C(O)[C@H]1CCCCN1; dNMeA = CN[C@H](C)C(=O)O

molecule: CC[C@H](C)[C@@H]1NC(=O)[C@@H](Cc2ccccc2)NC(=O)[C@@H]2CCCN2C(=O)[C@@H](Cc2ccc(N)cc2)NC(=O)[C@@H]2CCCCN2C(=O)[C@H]2CCCCN2C1=O [Example 48] (cyclo(I[dPip][Pip][dPhe(4-NH2)]P[dF]))
tgt: AVP-V2 sites (Rattus norvegicus, UniProt Q00788)
quantityName: IC50
measValue: > 10000 nM

molecule: CC[C@H](C)[C@@H]1NC(=O)[C@@H](Cc2ccccc2)NC(=O)[C@@H]2CCCN2C(=O)[C@@H](Cc2c[nH]cn2)NC(=O)[C@H]2CN(C(=O)OCc3ccccc3)CCN2C(=O)[C@H]2CCCCN2C1=O [Example 82] (cyclo(I[dPip][dPip(4-aza,4-Cbz)][dH]P[dF]))
tgt: AVP-V2 sites (Rattus norvegicus, UniProt Q00788)
quantityName: IC50
measValue: 10000 nM

molecule: CC[C@H](C)[C@@H]1NC(=O)[C@@H](Cc2c[nH]c3ccccc23)NC(=O)[C@@H]2CCCN2C(=O)[C@@H](Cc2ccccc2)N(C)C(=O)[C@H](CCCCN)NC(=O)[C@H]2CCCCN2C1=O [Example 132] (cyclo(I[dPip]K[dNMeF]P[dW]))
tgt: AVP-V2 sites (Rattus norvegicus, UniProt Q00788)
quantityName: IC50
measValue: 10000 nM

molecule: CC[C@H](C)[C@@H]1NC(=O)[C@@H](Cc2ccccc2)NC(=O)[C@@H]2CCCN2C(=O)[C@@H](Cc2ccccc2)N(C)C(=O)[C@@H]2CCCN2C(=O)[C@H]2CCCCN2C1=O [Example 7] (cyclo(I[dPip]P[dNMeF]P[dF]))
tgt: AVP-V2 sites (Rattus norvegicus, UniProt Q00788)
quantityName: IC50
measValue: > 10000 nM

molecule: CC[C@H](C)[C@@H]1NC(=O)[C@@H](Cc2ccccc2)NC(=O)[C@@H]2CCCN2C(=O)[C@@H](C)N(C)C(=O)[C@@H]2CCCCN2C(=O)[C@H]2CCCCN2C1=O [Example 5] (cyclo(I[dPip][Pip][dNMeA]P[dF]))
tgt: AVP-V2 sites (Rattus norvegicus, UniProt Q00788)
quantityName: IC50
measValue: > 10000 nM

molecule: CC[C@H](C)[C@@H]1NC(=O)[C@@H](Cc2ccccc2)NC(=O)[C@@H]2CCCN2C(=O)[C@@H](Cc2ccccc2)NC(=O)[C@@H]2CCCCN2C(=O)[C@H]2CN(C(=O)OCc3ccccc3)CCN2C1=O [Example 83] (cyclo(I[dPip(4-aza,4-Cbz)][Pip][dF]P[dF]))
tgt: AVP-V2 sites (Rattus norvegicus, UniProt Q00788)
quantityName: IC50
measValue: 10000 nM

molecule: CC[C@H](C)[C@@H]1NC(=O)[C@@H](Cc2ccccc2)NC(=O)[C@@H]2CCCN2C(=O)[C@@H](Cc2ccccc2)NC(=O)[C@@H]2CNCCN2C(=O)[C@H]2CCCN2C1=O [Example 164] (cyclo(I[dP][Pip(4-aza)][dF]P[dF]))
tgt: AVP-V2 sites (Rattus norvegicus, UniProt Q00788)
quantityName: IC50
measValue: > 10000 nM

Please find the next molecule below.
Look up IC50: CC[C@H](C)[C@@H]1NC(=O)[C@@H](Cc2ccccc2)NC(=O)[C@@H]2CCCN2C(=O)[C@@H](Cc2ccccc2)N(C)C(=O)[C@@H]2CCCCN2C(=O)[C@@H](C)N(C)C1=O [Example 8] (cyclo(I[dNMeA][Pip][dNMeF]P[dF]))
> 10000 nM

---

- tgt: uterine OT receptors (Rattus norvegicus)
- Construct: from tissue; host or cells: uterus of DES-treated rats, crude membranes
- Sequence (P70536 whole entry): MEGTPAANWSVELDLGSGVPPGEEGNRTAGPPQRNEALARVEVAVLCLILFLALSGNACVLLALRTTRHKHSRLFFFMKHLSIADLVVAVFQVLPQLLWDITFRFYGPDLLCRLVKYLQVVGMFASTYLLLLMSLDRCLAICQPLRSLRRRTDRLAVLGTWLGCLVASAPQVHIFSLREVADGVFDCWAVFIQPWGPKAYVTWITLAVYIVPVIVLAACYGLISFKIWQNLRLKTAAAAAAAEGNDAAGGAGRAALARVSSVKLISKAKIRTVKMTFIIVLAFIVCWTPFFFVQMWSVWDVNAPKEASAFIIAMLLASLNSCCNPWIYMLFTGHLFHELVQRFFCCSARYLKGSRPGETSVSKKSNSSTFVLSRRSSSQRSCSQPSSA
- assayExplanation: [^3 H]OT binding to uterine OT receptors, crude membrane preparation of uteri from DES-treated rats
- settings: 1 h; @ 1,000 (nM); read-out: [^3 H]OT: percent inhibition of radioligand at the given concentration
Numbered stars: 1 amine (or outer) side, 2 acyl side, 3 side chain; on linkers, the order of the positions; unused ones are H or OH. Square brackets hold non-standard residues; d marks the D form. Peptide text beside a SMILES is read from it. * marks the point of attachment. ξ: configuration not given here. dPip(4-aza,4-Cbz) = O=C(O)[C@H]1CN(C(=O)OCc2ccccc2)CCN1; X2 = O=C(OCc1ccccc1)N1CCN([*:1])[C@H](C(=O)[*:2])C1; dNMeF = CN[C@H](Cc1ccccc1)C(=O)O; ξmTyr = NC(Cc1cccc(O)c1)C(=O)O; Pip = O=C(O)[C@@H]1CCCCN1; dPip = O=C(O)[C@H]1CCCCN1; dNMeA = CN[C@H](C)C(=O)O; Boc = CC(C)(C)OC(=O)*; OtBu = CC(C)(C)O*; tBu = CC(C)(C)*
quantityName: inhibition at 1 µM
Output should be the measured figure followed by the unit it is expressed in.

compound: CC[C@H](C)[C@@H]1NC(=O)[C@@H](Cc2ccccc2)NC(=O)[C@@H]2CCCN2C(=O)[C@@H](Cc2ccccc2)N(C)C(=O)[C@@H]2CN(C(=O)OCc3ccccc3)CCN2C(=O)[C@H]2CN(C(=O)OCc3ccccc3)CCN2C1=O [Example 86] (cyclo(I[dPip(4-aza,4-Cbz)][X2][dNMeF]P[dF]))
inhibition at 1 µM: 58%

compound: CC[C@H](C)[C@@H]1NC(=O)[C@@H](Cc2cn(CC(=O)OC(C)(C)C)c3ccccc23)NC(=O)[C@@H]2CCCN2C(=O)[C@@H](Cc2ccccc2)N(C)C(=O)[C@@H]2CN(CC(=O)OC(C)(C)C)CCN2C(=O)[C@H]2CCCCN2C1=O [Example 182]
inhibition at 1 µM: 56%

compound: CC[C@H](C)[C@@H]1NC(=O)[C@@H](C)N(C)C(=O)[C@@H]2CCCN2C(=O)[C@@H](Cc2ccccc2)N(C)C(=O)[C@@H]2CCCCN2C(=O)[C@H]2CCCCN2C1=O [Example 167] (cyclo(I[dPip][Pip][dNMeF]P[dNMeA]))
inhibition at 1 µM: 5%

compound: CC[C@H](C)[C@@H]1NC(=O)[C@@H](Cc2ccccc2)NC(=O)[C@@H]2CCCN2C(=O)[C@@H](CC(=O)OC(C)(C)C)NC(=O)[C@@H]2CCCCN2C(=O)[C@H]2CCCCN2C1=O [Example 179] (cyclo(I[dPip][Pip][dD](OtBu)P[dF]))
inhibition at 1 µM: 63%

compound: CC[C@H](C)[C@@H]1NC(=O)[C@@H](Cc2ccc(O)cc2)NC(=O)[C@@H]2CCCN2C(=O)[C@@H](Cc2ccccc2)N(C)C(=O)[C@H](CCCCNC(=O)OC(C)(C)C)NC(=O)[C@H]2CCCCN2C1=O [Example 148] (cyclo(I[dPip]K(Boc)[dNMeF]P[dY]))
inhibition at 1 µM: 50%

compound: CC[C@H](C)[C@@H]1NC(=O)C(Cc2cccc(O)c2)NC(=O)[C@@H]2CCCN2C(=O)[C@@H](Cc2ccccc2)N(C)C(=O)[C@H](CCCCNC(=O)OC(C)(C)C)NC(=O)[C@H]2CCCCN2C1=O (some centres unmarked) [Example 143] (cyclo(I[dPip]K(Boc)[dNMeF]P[ξmTyr]))
inhibition at 1 µM: 68%

Fill blank: measured inhibition at 1 µM of the compound CC[C@H](C)[C@@H]1NC(=O)C(Cc2c[nH]c3ccc(F)cc23)NC(=O)[C@@H]2CCCN2C(=O)[C@@H](Cc2c[nH]cn2)NC(=O)[C@@H]2CCCCN2C(=O)[C@H]2CCCCN2C1=O (single isomer, unassigned) [157 lower Rf] is ____.
6%

Can you handle CC[C@H](C)[C@@H]1NC(=O)[C@@H](Cc2ccc(OC(C)(C)C)cc2)NC(=O)[C@@H]2CCCN2C(=O)[C@@H](Cc2ccccc2)N(C)C(=O)[C@H](CCCCNC(=O)OC(C)(C)C)NC(=O)[C@H]2CCCCN2C1=O [Example 144] (cyclo(I[dPip]K(Boc)[dNMeF]P[dY](tBu))) next?
67%
